# System Tested: T1, human KLRB1 protein extracellular domain (ECD) (human, UniProt Q12918 67-225)
# T1 construct: range 67-225; The ELISA and SPR text says only 'human KLRB1 ECD'; also called human KLRB1 ECD; CD161
# T1 sequence (looked up): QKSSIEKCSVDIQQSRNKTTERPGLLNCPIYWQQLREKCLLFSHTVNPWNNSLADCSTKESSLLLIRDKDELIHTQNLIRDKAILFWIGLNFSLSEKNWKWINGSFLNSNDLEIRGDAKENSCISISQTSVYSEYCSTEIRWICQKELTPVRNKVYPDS
# Protocol Description: SPR, human KLRB1 ECD; format not stated
Quantity Measured: kon (M⁻¹ s⁻¹)
// units = M⁻¹ s⁻¹; emit number, no label

Record excerpt, results attached:
{"Binder": "10A3D6C109Chum5.2 (antibody, V domains shown, Humanized variant of 10A3D6 made by CDR grafting) VH: QVQLVQSGAEVKKPGASVKVSCKASGYSFTGYTMNWVRQAPGQNLEWMGLINPNTGGTYYNQKFKDRVTLTVDTSISTAYMELSRLRSDDTVVYYCARLGDNYRGYFDCWGQGTLVTVSS VL: DIQLTQSPSFLSASVGDRVTITCKASQDVGTAVVWYQQKPGKAPKLLIDWASIRHTGVPSRFSGSGSGTEFTLTISSLQPEDFADYFCQQYSTYLYTFGGGTKLEIK", "kon / M⁻¹ s⁻¹": 800000}
{"Binder": "10A3D6C109Chum4.2 (antibody, V domains shown, Humanized variant of 10A3D6 made by CDR grafting) VH: QVQLVQSGAEVKKPGASVKVSCKASGYSFTGYTMNWVRQAHGQNLEWIGLINPNTGGTYYNQKFKDRATLTVDTSISTAYMELSRLRSDDTAVYYCARLGDNYRGYFDCWGQGTTVTVSS VL: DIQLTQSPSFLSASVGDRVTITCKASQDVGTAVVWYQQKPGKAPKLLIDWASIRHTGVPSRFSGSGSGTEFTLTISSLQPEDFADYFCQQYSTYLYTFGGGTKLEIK", "kon / M⁻¹ s⁻¹": 880000}

Note: attention shifts to another entry.
Item 10A3D6C109Chum1.3 (antibody, V domains shown, Humanized variant of 10A3D6 made by CDR grafting) VH: QVQLVQSGAEVKKPGASVKVSCKASGYSFTGYTMNWVRQAPGQGLEWMGLINPNTGGTYYNQKFKDRVTMTRDTSISTAYMELSRLRSDDTAVYYCARLGDNYRGYFDCWGQGTTVTVSS VL: DIQLTQSPSFLSASVGDRVTITCKASQDVGTAVVWYQQTPGKAPKLLIDWASIRHTGVPSRFSGSGSGTEFTLTISSLQPEDFADYFCQQYSTYLYTFGGGTKLEIK has what recorded kon?
999000

Origin of values: patent US20250270328A1
